Attribution: ChEMBL document CHEMBL1135505

target: Muscarinic acetylcholine receptor M5 (Homo sapiens); assay: Inhibition of [3H]NMS binding to human muscarinic acetylcholine receptor M5 in transfected CHO cells.; format: cell-based
Sequence (P08912 whole entry): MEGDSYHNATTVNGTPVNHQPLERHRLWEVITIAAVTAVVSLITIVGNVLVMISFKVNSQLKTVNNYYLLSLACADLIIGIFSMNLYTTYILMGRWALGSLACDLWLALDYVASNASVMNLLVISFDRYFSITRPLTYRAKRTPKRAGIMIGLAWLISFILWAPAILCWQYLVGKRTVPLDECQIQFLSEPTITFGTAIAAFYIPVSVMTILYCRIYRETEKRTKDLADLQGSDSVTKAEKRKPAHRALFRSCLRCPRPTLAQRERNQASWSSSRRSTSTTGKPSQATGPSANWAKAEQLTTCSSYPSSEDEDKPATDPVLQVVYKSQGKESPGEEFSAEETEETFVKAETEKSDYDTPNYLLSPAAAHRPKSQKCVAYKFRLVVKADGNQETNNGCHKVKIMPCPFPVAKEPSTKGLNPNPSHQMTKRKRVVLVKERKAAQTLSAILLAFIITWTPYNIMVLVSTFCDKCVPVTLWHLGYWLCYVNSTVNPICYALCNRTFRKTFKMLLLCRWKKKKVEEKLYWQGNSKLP
Mark Condition met for Ki under 3 µM, Condition not met if at or over.

Molecule: CCCc1c(C(=O)OCC)c2c3c(ccc2n1C)OC1c2ccc(SC)cc2CCN1C3 (stereo unspecified)
Classification: Condition met
//
Molecule: CCOC(=O)c1c(C)[nH]c2ccc3c(c12)CN1CCc2cc(OC)ccc2C1O3 (stereo unspecified)
Classification: Condition not met
//
Molecule: CCOC(=O)c1c(C)n(C)c2ccc3c(c12)CN1CCc2cc(OC)ccc2C1O3 (stereo unspecified)
Classification: Condition not met
//
Molecule: CCOC(=O)c1c(C)n(CC)c2ccc3c(c12)CN1CCc2cc(OC)ccc2C1O3 (stereo unspecified)
Classification: Condition met
//
Molecule: CCCCc1[nH]c2ccc3c(c2c1C(=O)OCC)CN1CCc2cc(SC)ccc2C1O3 (stereo unspecified)
Classification: Condition met
//
Molecule: CCCCOC(=O)c1c(C)[nH]c2ccc3c(c12)CN1CCc2cc(OC)ccc2C1O3 (stereo unspecified)
Classification: Condition met

====

target: UniProt P08173; experiment: Inhibition of [3H]NMS binding to human muscarinic acetylcholine receptor M4 in transfected CHO cells.
Sequence (P08173 whole entry): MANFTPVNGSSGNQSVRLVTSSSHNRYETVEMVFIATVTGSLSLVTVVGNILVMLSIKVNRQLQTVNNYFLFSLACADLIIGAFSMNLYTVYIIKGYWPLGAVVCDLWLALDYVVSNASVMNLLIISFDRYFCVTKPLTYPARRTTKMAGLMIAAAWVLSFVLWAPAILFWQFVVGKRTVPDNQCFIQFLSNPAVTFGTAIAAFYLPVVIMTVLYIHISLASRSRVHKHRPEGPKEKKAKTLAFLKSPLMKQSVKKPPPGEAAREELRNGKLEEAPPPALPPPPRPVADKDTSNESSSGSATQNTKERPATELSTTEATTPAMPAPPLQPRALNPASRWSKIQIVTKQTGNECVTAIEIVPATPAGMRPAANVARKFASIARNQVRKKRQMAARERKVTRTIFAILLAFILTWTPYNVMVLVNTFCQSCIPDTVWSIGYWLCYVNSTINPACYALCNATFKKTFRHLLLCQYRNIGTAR

Molecule: CCOC(=O)c1c(CC)n(Cc2ccccc2)c2ccc3c(c12)CN1CCc2cc(OC)ccc2C1O3 (stereo unspecified)
Relational operator: =
Ki (nM): 97.7

Molecule: CCCCCc1[nH]c2ccc3c(c2c1C(=O)OCC)CN1CCc2cc(OC)ccc2C1O3 (stereo unspecified)
Relational operator: =
Ki (nM): 11

Molecule: CCOC(=O)c1c(C)[nH]c2ccc3c(c12)CN1CCc2cc(Cl)ccc2C1O3 (stereo unspecified)
Relational operator: =
Ki (nM): 363

Molecule: CCCCc1[nH]c2ccc3c(c2c1C(=O)OCC)CN1CCc2cc(SC)ccc2C1O3 (stereo unspecified)
Relational operator: =
Ki (nM): 3.02

Molecule: CCOC(=O)c1c(C)[nH]c2ccc3c(c12)CN1CCc2cc(OC)ccc2C1O3 (stereo unspecified)
Relational operator: =
Ki (nM): 7.08

Molecule: CCOC(=O)c1c(CC)n(C)c2ccc3c(c12)CN1CCc2cc(OC)ccc2C1O3 (stereo unspecified)
Relational operator: =
Ki (nM): 3.02

Molecule: CCOC(=O)c1c(CC)[nH]c2ccc3c(c12)CN1CCc2cc(OC)ccc2C1O3 (stereo unspecified)
Relational operator: =
Ki (nM): 3.98

Molecule: C=CCOC(=O)c1c(C)n(Cc2ccc(OC)cc2)c2ccc3c(c12)CN1CCc2cc(OC)ccc2C1O3 (stereo unspecified)
Relational operator: =
Ki (nM): 72.4

Molecule: C=CCOC(=O)c1c(C)[nH]c2ccc3c(c12)CN1CCc2cc(OC)ccc2C1O3 (stereo unspecified)
Relational operator: =
Ki (nM): 15.1

Molecule: COc1ccc2c(c1)CCN1Cc3c(ccc4[nH]c(C)c(C(=O)OCc5ccccc5)c34)OC21 (stereo unspecified)
Relational operator: =
Ki (nM): 72.4

Molecule: CCCCOC(=O)c1c(C)[nH]c2ccc3c(c12)CN1CCc2cc(OC)ccc2C1O3 (stereo unspecified)
Relational operator: =
Ki (nM): 67.6

Molecule: CCOC(=O)c1c(C)[nH]c2ccc3c(c12)CN1CCc2cc(SC)ccc2C1O3 (stereo unspecified)
Relational operator: =
Ki (nM): 7.08

Molecule: CCCc1c(C(=O)OCC)c2c3c(ccc2n1C)OC1c2ccc(SC)cc2CCN1C3 (stereo unspecified)
Relational operator: =
Ki (nM): 2

Molecule: COc1ccc2c(c1)CCN1Cc3c(ccc4[nH]c(C)c(-c5nc(C)no5)c34)OC21 (stereo unspecified)
Relational operator: =
Ki (nM): 61.7

Molecule: COC(=O)c1c(C)n(C)c2ccc3c(c12)CN1CCc2cc(OC)ccc2C1O3 (stereo unspecified)
Relational operator: =
Ki (nM): 191

Molecule: CCCCCCc1[nH]c2ccc3c(c2c1C(=O)OCC)CN1CCc2cc(OC)ccc2C1O3 (stereo unspecified)
Relational operator: =
Ki (nM): 14.1

Molecule: CCOC(=O)c1c(C)[nH]c2ccc3c(c12)CN1CCc2cccc(Cl)c2C1O3 (stereo unspecified)
Relational operator: =
Ki (nM): 1950

Molecule: CCOC(=O)c1c(C)n(C)c2ccc3c(c12)CN1CCc2cc(OC)ccc2C1O3 (stereo unspecified)
Relational operator: =
Ki (nM): 15.1

Molecule: CCOC(=O)c1c(C)[nH]c2ccc3c(c12)CN1CCc2cc(O)ccc2C1O3 (stereo unspecified)
Relational operator: >
Ki (nM): 12300

Molecule: COc1ccc2c(c1)CCN1Cc3c(ccc4[nH]c(C)c(Cc5ccccc5)c34)OC21 (stereo unspecified)
Relational operator: =
Ki (nM): 1350

Molecule: CCCc1c(C(=O)OCC)c2c3c(ccc2n1C)OC1c2ccc(OC)cc2CCN1C3 (stereo unspecified)
Relational operator: =
Ki (nM): 2

Molecule: CCCc1[nH]c2ccc3c(c2c1C(=O)OCC)CN1CCc2cc(OC)ccc2C1O3 (stereo unspecified)
Relational operator: =
Ki (nM): 2

Molecule: CCCCc1[nH]c2ccc3c(c2c1C(=O)OCC)CN1CCc2cc(OC)ccc2C1O3 (stereo unspecified)
Relational operator: =
Ki (nM): 1

Molecule: CCCc1[nH]c2ccc3c(c2c1C(=O)OCC)CN1CCc2cc(SC)ccc2C1O3 (stereo unspecified)
Relational operator: =
Ki (nM): 1

Molecule: CCOC(=O)c1c(C)n(CC)c2ccc3c(c12)CN1CCc2cc(OC)ccc2C1O3 (stereo unspecified)
Relational operator: =
Ki (nM): 110

Molecule: CCN(C)C(=O)c1c(C)[nH]c2ccc3c(c12)CN1CCc2cc(OC)ccc2C1O3 (stereo unspecified)
Relational operator: =
Ki (nM): 9770

====

molecular target: Muscarinic acetylcholine receptor M3 (Homo sapiens); experiment: Inhibition of [3H]NMS binding to human muscarinic acetylcholine receptor M3 in transfected CHO cells.
Sequence (P20309 whole entry): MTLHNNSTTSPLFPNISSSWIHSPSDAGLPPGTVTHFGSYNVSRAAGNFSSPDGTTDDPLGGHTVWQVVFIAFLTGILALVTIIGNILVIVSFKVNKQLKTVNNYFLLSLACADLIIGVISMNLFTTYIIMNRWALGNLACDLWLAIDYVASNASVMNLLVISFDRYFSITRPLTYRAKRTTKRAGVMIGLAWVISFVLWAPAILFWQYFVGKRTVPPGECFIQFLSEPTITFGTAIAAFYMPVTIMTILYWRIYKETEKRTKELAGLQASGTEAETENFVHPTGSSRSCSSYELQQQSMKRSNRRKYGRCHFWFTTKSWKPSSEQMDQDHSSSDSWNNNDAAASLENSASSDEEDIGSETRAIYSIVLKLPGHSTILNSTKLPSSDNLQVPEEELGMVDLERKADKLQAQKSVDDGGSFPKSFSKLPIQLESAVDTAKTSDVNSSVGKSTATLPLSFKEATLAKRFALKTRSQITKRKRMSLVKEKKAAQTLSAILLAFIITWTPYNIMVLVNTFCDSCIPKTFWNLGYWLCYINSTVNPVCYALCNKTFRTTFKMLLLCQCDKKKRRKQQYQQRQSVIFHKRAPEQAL
pKi: −log10 of the molar value.
As shown below, each of these compounds has a reported pKi value.
Property name: pKi

Compound: CCCCCCc1[nH]c2ccc3c(c2c1C(=O)OCC)CN1CCc2cc(OC)ccc2C1O3 (stereo unspecified)
Assayed system: Muscarinic acetylcholine receptor M3 (Homo sapiens)
Number: 6.55
//
Compound: CCOC(=O)c1c(C)n(C)c2ccc3c(c12)CN1CCc2cc(OC)ccc2C1O3 (stereo unspecified)
Assayed system: Muscarinic acetylcholine receptor M3 (Homo sapiens)
Number: 6.04
//
Compound: CCCc1[nH]c2ccc3c(c2c1C(=O)OCC)CN1CCc2cc(SC)ccc2C1O3 (stereo unspecified)
Assayed system: Muscarinic acetylcholine receptor M3 (Homo sapiens)
Number: 7.00
//
Compound: CCCCCc1[nH]c2ccc3c(c2c1C(=O)OCC)CN1CCc2cc(OC)ccc2C1O3 (stereo unspecified)
Assayed system: Muscarinic acetylcholine receptor M3 (Homo sapiens)
Number: 6.34
//
Compound: CCOC(=O)c1c(CC)[nH]c2ccc3c(c12)CN1CCc2cc(OC)ccc2C1O3 (stereo unspecified)
Assayed system: Muscarinic acetylcholine receptor M3 (Homo sapiens)
Number: 7.04
//
Compound: CCOC(=O)c1c(CC)n(C)c2ccc3c(c12)CN1CCc2cc(OC)ccc2C1O3 (stereo unspecified)
Assayed system: Muscarinic acetylcholine receptor M3 (Homo sapiens)
Number: 6.66
//
Compound: COc1ccc2c(c1)CCN1Cc3c(ccc4[nH]c(C)c(Cc5ccccc5)c34)OC21 (stereo unspecified)
Assayed system: Muscarinic acetylcholine receptor M3 (Homo sapiens)
Number: 5.69
//
Compound: CCCCc1[nH]c2ccc3c(c2c1C(=O)OCC)CN1CCc2cc(OC)ccc2C1O3 (stereo unspecified)
Assayed system: Muscarinic acetylcholine receptor M3 (Homo sapiens)
Number: 6.82
//
Compound: CCOC(=O)c1c(C)[nH]c2ccc3c(c12)CN1CCc2cccc(Cl)c2C1O3 (stereo unspecified)
Assayed system: Muscarinic acetylcholine receptor M3 (Homo sapiens)
Number: 5.29
//
Compound: CCOC(=O)c1c(C)[nH]c2ccc3c(c12)CN1CCc2cc(OC)ccc2C1O3 (stereo unspecified)
Assayed system: Muscarinic acetylcholine receptor M3 (Homo sapiens)
Number: 6.59
//
Compound: CCOC(=O)c1c(C)n(CC)c2ccc3c(c12)CN1CCc2cc(OC)ccc2C1O3 (stereo unspecified)
Assayed system: Muscarinic acetylcholine receptor M3 (Homo sapiens)
Number: 6.58
//
Compound: COc1ccc2c(c1)CCN1Cc3c(ccc4[nH]c(C)c(C(=O)OCc5ccccc5)c34)OC21 (stereo unspecified)
Assayed system: Muscarinic acetylcholine receptor M3 (Homo sapiens)
Number: 5.86
//
Compound: CCOC(=O)c1c(C)[nH]c2ccc3c(c12)CN1CCc2cc(SC)ccc2C1O3 (stereo unspecified)
Assayed system: Muscarinic acetylcholine receptor M3 (Homo sapiens)
Number: 6.64
//
Compound: CCCc1c(C(=O)OCC)c2c3c(ccc2n1C)OC1c2ccc(SC)cc2CCN1C3 (stereo unspecified)
Assayed system: Muscarinic acetylcholine receptor M3 (Homo sapiens)
Number: 6.64
//
Compound: C=CCOC(=O)c1c(C)[nH]c2ccc3c(c12)CN1CCc2cc(OC)ccc2C1O3 (stereo unspecified)
Assayed system: Muscarinic acetylcholine receptor M3 (Homo sapiens)
Number: 6.39
//
Compound: COC(=O)c1c(C)n(C)c2ccc3c(c12)CN1CCc2cc(OC)ccc2C1O3 (stereo unspecified)
Assayed system: Muscarinic acetylcholine receptor M3 (Homo sapiens)
Number: 6.40
//
Compound: CCN(C)C(=O)c1c(C)[nH]c2ccc3c(c12)CN1CCc2cc(OC)ccc2C1O3 (stereo unspecified)
Assayed system: Muscarinic acetylcholine receptor M3 (Homo sapiens)
Number: 4.81
//
Compound: CCCCc1[nH]c2ccc3c(c2c1C(=O)OCC)CN1CCc2cc(SC)ccc2C1O3 (stereo unspecified)
Assayed system: Muscarinic acetylcholine receptor M3 (Homo sapiens)
Number: 6.47
//
Compound: C=CCOC(=O)c1c(C)n(Cc2ccc(OC)cc2)c2ccc3c(c12)CN1CCc2cc(OC)ccc2C1O3 (stereo unspecified)
Assayed system: Muscarinic acetylcholine receptor M3 (Homo sapiens)
Number: 6.17
//
Compound: CCOC(=O)c1c(C)[nH]c2ccc3c(c12)CN1CCc2cc(O)ccc2C1O3 (stereo unspecified)
Assayed system: Muscarinic acetylcholine receptor M3 (Homo sapiens)
Number: 4.59
//
Compound: CCOC(=O)c1c(CC)n(Cc2ccccc2)c2ccc3c(c12)CN1CCc2cc(OC)ccc2C1O3 (stereo unspecified)
Assayed system: Muscarinic acetylcholine receptor M3 (Homo sapiens)
Number: 7.30
//
Compound: CCOC(=O)c1c(C)[nH]c2ccc3c(c12)CN1CCc2cc(Cl)ccc2C1O3 (stereo unspecified)
Assayed system: Muscarinic acetylcholine receptor M3 (Homo sapiens)
Number: 5.56
//
Compound: CCCCOC(=O)c1c(C)[nH]c2ccc3c(c12)CN1CCc2cc(OC)ccc2C1O3 (stereo unspecified)
Assayed system: Muscarinic acetylcholine receptor M3 (Homo sapiens)
Number: 5.99
//
Compound: CCCc1[nH]c2ccc3c(c2c1C(=O)OCC)CN1CCc2cc(OC)ccc2C1O3 (stereo unspecified)
Assayed system: Muscarinic acetylcholine receptor M3 (Homo sapiens)
Number: 7.15
//
Compound: COc1ccc2c(c1)CCN1Cc3c(ccc4[nH]c(C)c(-c5nc(C)no5)c34)OC21 (stereo unspecified)
Assayed system: Muscarinic acetylcholine receptor M3 (Homo sapiens)
Number: 5.51
//
Compound: CCCc1c(C(=O)OCC)c2c3c(ccc2n1C)OC1c2ccc(OC)cc2CCN1C3 (stereo unspecified)
Assayed system: Muscarinic acetylcholine receptor M3 (Homo sapiens)
Number: 7.15
